Reference source: the MegaScale stability set (Tsuboyama et al. 2023)

B1: HEEH_KT_rd6_3632 (parent)
chain: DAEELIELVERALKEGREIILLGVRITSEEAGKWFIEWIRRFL

- Variants of: B1
- Measurement Notes: folding stability dG (cDNA display proteolysis); higher = more stable
- Condition Summary: PBS, room temperature
Measure: folding stability dG (kcal/mol)
Give the quantity in kcal/mol, number only.

Record excerpt, results attached:
E37G :: 3.42
I6F :: 3.48
E18A :: 3.74
G32N :: 3.38
I36F :: 3.44
E4Q :: 3.95

[ask] Which folding stability dG value is on record for E18S ?
[reply] 3.83

[ask] Moving on to the next variant: K14L
[reply] 3.79
